Data provenance is PubChem BioAssay AID1963434.

Tested on: 755483-174-R-J1-PDC complex spheroid growth, percent test/control
Assay Name: Anticancer human tumor 755483-174-R-J1-PDC patient-derived rhabdomyosarcoma cell line growth inhibition [Asc]
Protocol Conditions: second compound 1 µM; first compound 1 µM; stronger effect = lower value
Mark T for viability, T/C under 30%, F if at or over.

Worked examples, 4 compounds total:
Compound	Target System	Cat
C#Cc1c(F)ccc2cc(O)cc(-c3ncc4c(N5CC6CCC(C5)N6)nc(OCC56CCCN5CC(F)C6)nc4c3F)c12 (stereo not given) + Cc1c(S(C)(=O)=O)c(-c2cc(F)cc(N3CCN(c4ccc(NS(=O)(=O)c5ccc(NC(CCN6CCC(C(=O)OCCCP(=O)(O)O)CC6)CSc6ccccc6)c(S(=O)(=O)C(F)(F)F)c5)cc4)CC3)c2)c(-c2ccc(Cl)cc2)n1C(C)C	755483-174-R-J1-PDC complex spheroid growth, percent test/control	F
O=C(c1ccc(F)c(F)c1Nc1ccc(I)cc1F)N1CC(O)([C@@H]2CCCCN2)C1 + Cc1c(S(C)(=O)=O)c(-c2cc(F)cc(N3CCN(c4ccc(NS(=O)(=O)c5ccc(NC(CCN6CCC(C(=O)OCCCP(=O)(O)O)CC6)CSc6ccccc6)c(S(=O)(=O)C(F)(F)F)c5)cc4)CC3)c2)c(-c2ccc(Cl)cc2)n1C(C)C	755483-174-R-J1-PDC complex spheroid growth, percent test/control	T
CCN1CCN(Cc2ccc(Nc3ncc(F)c(-c4cc(F)c5nc(C)n(C(C)C)c5c4)n3)nc2)CC1 + CNC(C)C(=O)NC1CN(S(=O)(=O)c2cccc(S(=O)(=O)N3CCC4CCC(C(=O)NC(c5ccccc5)c5ccccc5)N4C(=O)C(NC(=O)C(C)NC)C3)c2)CCC2CCC(C(=O)NC(c3ccccc3)c3ccccc3)N2C1=O	755483-174-R-J1-PDC complex spheroid growth, percent test/control	F
C=CC(=O)N1CCN(c2nc(=O)n(-c3c(C)ccnc3C(C)C)c3nc(-c4c(O)cccc4F)c(F)cc23)C(C)C1 (stereo not given) + Cc1c(S(C)(=O)=O)c(-c2cc(F)cc(N3CCN(c4ccc(NS(=O)(=O)c5ccc(NC(CCN6CCC(C(=O)OCCCP(=O)(O)O)CC6)CSc6ccccc6)c(S(=O)(=O)C(F)(F)F)c5)cc4)CC3)c2)c(-c2ccc(Cl)cc2)n1C(C)C	755483-174-R-J1-PDC complex spheroid growth, percent test/control	F

// switching to the query compound
Task item: is_below(viability, T/C, 30%) for CNC(C)C(=O)NC1CN(S(=O)(=O)c2cccc(S(=O)(=O)N3CCC4CCC(C(=O)NC(c5ccccc5)c5ccccc5)N4C(=O)C(NC(=O)C(C)NC)C3)c2)CCC2CCC(C(=O)NC(c3ccccc3)c3ccccc3)N2C1=O (stereo not given) + Cc1c(S(C)(=O)=O)c(-c2cc(F)cc(N3CCN(c4ccc(NS(=O)(=O)c5ccc(NC(CCN6CCC(C(=O)OCCCP(=O)(O)O)CC6)CSc6ccccc6)c(S(=O)(=O)C(F)(F)F)c5)cc4)CC3)c2)c(-c2ccc(Cl)cc2)n1C(C)C ?
Reply: T

###

System: 755483-174-R-J1-PDC complex spheroid growth, percent test/control
Assay Name: Anticancer human tumor 755483-174-R-J1-PDC cell line growth inhibition [Asc]; active = viability on the fitted dose curve at most 10% of control; inactive = the rest;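 further: spheroids exposed to compounds for seven days before readout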
Protocol Conditions: second compound 1 µM; first compound 1 µM
API: response.call in 1 (yes) (active), 0 (no) (inactive)

Compound	Cat
C=C(F)C(=O)N1CCN(c2nc(OCC3CCCN3C)nc3c2CCN(c2cccc4cccc(Cl)c24)C3)CC1CC#N (configuration not stated) + Cc1c(S(C)(=O)=O)c(-c2cc(F)cc(N3CCN(c4ccc(NS(=O)(=O)c5ccc(NC(CCN6CCC(C(=O)OCCCP(=O)(O)O)CC6)CSc6ccccc6)c(S(=O)(=O)C(F)(F)F)c5)cc4)CC3)c2)c(-c2ccc(Cl)cc2)n1C(C)C	0 (no)
C=C(F)C(=O)N1CCN(c2nc(OCC3CCCN3C)nc3c2CCN(c2cccc4cccc(Cl)c24)C3)CC1CC#N (configuration not stated) + CNC(C)C(=O)NC1CN(S(=O)(=O)c2cccc(S(=O)(=O)N3CCC4CCC(C(=O)NC(c5ccccc5)c5ccccc5)N4C(=O)C(NC(=O)C(C)NC)C3)c2)CCC2CCC(C(=O)NC(c3ccccc3)c3ccccc3)N2C1=O	0 (no)
COc1c(OCCCN2CCOCC2)ccc2c3n(c(=NC(=O)c4cnc(N)nc4)nc12)CCN3 + CNC(C)C(=O)NC1CN(S(=O)(=O)c2cccc(S(=O)(=O)N3CCC4CCC(C(=O)NC(c5ccccc5)c5ccccc5)N4C(=O)C(NC(=O)C(C)NC)C3)c2)CCC2CCC(C(=O)NC(c3ccccc3)c3ccccc3)N2C1=O	0 (no)
O=C(c1ccc(F)c(F)c1Nc1ccc(I)cc1F)N1CC(O)([C@@H]2CCCCN2)C1 + CNC(C)C(=O)NC1CN(S(=O)(=O)c2cccc(S(=O)(=O)N3CCC4CCC(C(=O)NC(c5ccccc5)c5ccccc5)N4C(=O)C(NC(=O)C(C)NC)C3)c2)CCC2CCC(C(=O)NC(c3ccccc3)c3ccccc3)N2C1=O	0 (no)
C=CC(=O)N1CCN(c2nc(=O)n(-c3c(C)ccnc3C(C)C)c3nc(-c4c(O)cccc4F)c(F)cc23)C(C)C1 (configuration not stated) + CNC(C)C(=O)NC1CN(S(=O)(=O)c2cccc(S(=O)(=O)N3CCC4CCC(C(=O)NC(c5ccccc5)c5ccccc5)N4C(=O)C(NC(=O)C(C)NC)C3)c2)CCC2CCC(C(=O)NC(c3ccccc3)c3ccccc3)N2C1=O	0 (no)
C#Cc1c(F)ccc2cc(O)cc(-c3ncc4c(N5CC6CCC(C5)N6)nc(OCC56CCCN5CC(F)C6)nc4c3F)c12 (configuration not stated) + CNC(C)C(=O)NC1CN(S(=O)(=O)c2cccc(S(=O)(=O)N3CCC4CCC(C(=O)NC(c5ccccc5)c5ccccc5)N4C(=O)C(NC(=O)C(C)NC)C3)c2)CCC2CCC(C(=O)NC(c3ccccc3)c3ccccc3)N2C1=O	0 (no)

Would you kindly look at the next entry?
Task item: Short answer needed: outcome of this test for COc1c(OCCCN2CCOCC2)ccc2c3n(c(=NC(=O)c4cnc(N)nc4)nc12)CCN3 + Cc1c(S(C)(=O)=O)c(-c2cc(F)cc(N3CCN(c4ccc(NS(=O)(=O)c5ccc(NC(CCN6CCC(C(=O)OCCCP(=O)(O)O)CC6)CSc6ccccc6)c(S(=O)(=O)C(F)(F)F)c5)cc4)CC3)c2)c(-c2ccc(Cl)cc2)n1C(C)C ?
Reply: 1 (yes)
